Attribute: self-cleavage
B1: LINE1-mini (parent)
chain: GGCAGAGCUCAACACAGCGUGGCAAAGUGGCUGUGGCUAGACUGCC

Variants of: B1
protocol: self-cleavage, relative activity (ratio to wild type); higher = more cleavage; in vitro, sequencing; the parent is a self-cleaving ribozyme
parameter: self-cleavage

GGCAGAGCUCAACACAUCGUGGGAAAGUGGCUGUGGCUAGACUGCC 0.1
GGCAGAGCUCAACACAGCGUGGCAGUGUGGCUGUGGCUAGACUGCC 0.1
GGCAGAGCUCAACACAGCGUGGCAGAGUGGCGGUGGCUAGACUGCC 0.12
GGCAGAGCUCAACACAUCGUGGCAAAGUGGCUGUGGCUAGACUCCC 0.05
GGCAGAGCUCAACACAGCGUGGCCAAGGGGCUGUGGCUAGACUGCC 0.35
GACAGAGCUCAACACAGCGUGGCAAACUGGCUGUGGCUAGACUGCC 0.72
GGCAGAGCUUAACACAGCGUCGCAAAGUGGCUGUGGCUAGACUGCC 0.19
GGCAGAGCUCAACACAGCGUGGCAAAGGGGCUGUGGCUCGACUGCC 0.05
GGCAGAGCUCAACACAGCGUGGCAAAGUGGCGGUGGCUAGACUGCU 0.17
UGCAGAGCUCAACACAGCGUGGCAAAGUGGCUGUGGAUAGACUGCC 0.06

Origin of the recorded values: the RNAGym collection of RNA variant scans (doi:10.7554/elife.90254)
